Cited source for all entries: patent US10774051B2

List of IC50 values.
Target: human P2X7 receptor (Homo sapiens, UniProt Q99572, R270H/Y155H)
Experiment: Evaluation of human P2X7 receptor inhibitory activity (Yo-Pro uptake, BzATP stimulation, FLIPR TETRA)
Format: cell-based
Settings: antagonistic activity for the human P2X7 receptor; read-out: IC50

Use these answered entries as a reference point.
{"CHEMICAL_STRUCTURE": "COc1cc(C)c(Nc2nc(=O)c(F)cn2Cc2cc(F)c(F)c(F)c2)cc1C(C)C", "IC50": "0.01 to 0.1 µM"}
{"CHEMICAL_STRUCTURE": "COc1cn(Cc2cc(F)c(F)c(F)c2)c(Nc2cc3c(cc2C)OCCO3)nc1=O", "IC50": "< 0.01 µM"}
{"CHEMICAL_STRUCTURE": "COc1cc(Nc2nc(=O)c(F)cn2Cc2cc(F)cc(F)c2)c(C)nc1F", "IC50": "0.1 to 0.5 µM"}
{"CHEMICAL_STRUCTURE": "COc1cn(Cc2ccc(F)cc2)c(Nc2cccc(C)c2Cl)nc1=O", "IC50": "0.01 to 0.1 µM"}
{"CHEMICAL_STRUCTURE": "Cc1nc2cc(C)c(Nc3nc(=O)cnn3Cc3cc(F)c(F)c(F)c3)cc2s1", "IC50": "< 0.01 µM"}
{"CHEMICAL_STRUCTURE": "COc1cn(Cc2ccccc2)c(Nc2c(C)cccc2C)nc1=O", "IC50": "0.1 to 0.5 µM"}

Req: Can you look up the measured IC50 of `COc1cn(Cc2cc(F)cc(Cl)c2)c(Nc2cc(Cl)c(F)cc2C)nc1=O` for me?
Resp: 0.01 to 0.1 µM

Req: Can you look up the measured IC50 of `Cc1nc2cc(C)c(Nc3nc(=O)c(F)cn3Cc3ccc(F)c(F)c3)cc2s1` for me?
Resp: < 0.01 µM
